tgt: UniProt:P22303
Sequence (P22303 whole entry): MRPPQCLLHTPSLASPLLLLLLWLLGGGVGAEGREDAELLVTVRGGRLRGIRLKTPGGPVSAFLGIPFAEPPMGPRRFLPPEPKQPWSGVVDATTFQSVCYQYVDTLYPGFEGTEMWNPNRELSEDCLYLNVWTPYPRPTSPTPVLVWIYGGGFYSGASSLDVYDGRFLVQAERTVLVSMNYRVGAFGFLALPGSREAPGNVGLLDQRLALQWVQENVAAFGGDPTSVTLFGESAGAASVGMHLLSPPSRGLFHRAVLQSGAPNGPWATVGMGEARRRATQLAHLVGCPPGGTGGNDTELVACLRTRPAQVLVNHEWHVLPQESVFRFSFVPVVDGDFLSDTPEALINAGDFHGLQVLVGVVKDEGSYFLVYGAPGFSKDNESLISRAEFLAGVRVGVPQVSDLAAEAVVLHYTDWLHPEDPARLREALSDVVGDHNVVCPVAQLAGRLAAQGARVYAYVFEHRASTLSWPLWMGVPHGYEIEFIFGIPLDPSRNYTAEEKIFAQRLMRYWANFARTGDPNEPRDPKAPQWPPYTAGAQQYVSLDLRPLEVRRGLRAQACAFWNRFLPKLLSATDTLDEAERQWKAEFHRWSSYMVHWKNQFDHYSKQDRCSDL

{"smiles_entry": "O=C1c2cccc(O)c2C(=O)c2c(O)cc(CO)cc21", "IC50": "68 µM"}
